- assayed_target: Serine/threonine-protein kinase haspin (Homo sapiens)
- Sequence (Q8TF76 whole entry): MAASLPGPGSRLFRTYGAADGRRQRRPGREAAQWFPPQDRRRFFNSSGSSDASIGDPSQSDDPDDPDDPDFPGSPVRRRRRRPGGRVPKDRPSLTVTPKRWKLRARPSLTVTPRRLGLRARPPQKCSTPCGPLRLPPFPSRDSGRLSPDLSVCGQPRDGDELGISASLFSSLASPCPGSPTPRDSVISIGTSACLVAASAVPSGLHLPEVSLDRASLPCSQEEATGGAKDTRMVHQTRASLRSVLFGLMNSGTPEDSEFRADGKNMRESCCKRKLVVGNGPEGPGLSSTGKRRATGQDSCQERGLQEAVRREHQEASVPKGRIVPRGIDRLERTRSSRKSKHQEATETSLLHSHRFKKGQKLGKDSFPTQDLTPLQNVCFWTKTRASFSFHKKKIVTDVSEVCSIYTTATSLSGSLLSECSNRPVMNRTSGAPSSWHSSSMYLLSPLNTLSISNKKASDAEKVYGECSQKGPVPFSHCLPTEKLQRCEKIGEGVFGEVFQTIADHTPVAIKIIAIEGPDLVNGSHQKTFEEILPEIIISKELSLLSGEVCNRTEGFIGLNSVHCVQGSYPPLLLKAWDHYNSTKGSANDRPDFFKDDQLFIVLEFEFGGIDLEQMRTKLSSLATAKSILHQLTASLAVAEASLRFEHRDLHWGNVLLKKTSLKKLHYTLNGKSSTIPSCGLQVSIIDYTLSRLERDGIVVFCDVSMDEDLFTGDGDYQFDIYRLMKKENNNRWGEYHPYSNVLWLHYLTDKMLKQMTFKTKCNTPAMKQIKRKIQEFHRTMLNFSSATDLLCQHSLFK
reported_property: IC50 (nM)
Form entry: value (nM) — number only.

Lab book: IC50 of CN1CCC(CNc2ccc3ncc(-c4cccc(OC(F)(F)F)c4)n3n2)CC1 noted as 34
